assay: Dissociation constant, pKa of the compound by UV-visible spectrophotometry; assay type: physicochemical
measured.parameter: pKa

INSERT INTO measurements (compound, measured_parameter, observed_result) VALUES
  ('Nc1c(Cc2cccc3ccccc23)c(C2CC2)c2n(c1=O)C(C(=O)Nc1ccccc1)CS2 (stereo unspecified)', 'pKa', 2.4);

* * *

List of viability at 48 h, 10 µM values.
assay: Cytotoxicity against human HeLa cells assessed as cell viability at 10 uM after 48 hrs by resazurin assay relative to control; type: cell-based; settings: read-out: Activity
measured.parameter: viability at 48 h, 10 µM (%)

INSERT INTO measurements (compound, observed_result) VALUES
  ('COc1cccc(NC(=O)C2CSc3c(C4CC4)c(Cc4cccc5ccccc45)cc(=O)n32)c1 (stereo not given)', 98),
  ('O=C(Nc1ccccc1F)C1CSc2c(C3CC3)c(Cc3cccc4ccccc34)cc(=O)n21 (stereo not given)', 96),
  ('O=C(Nc1ccc(Cl)cc1)C1CSc2c(C3CC3)c(Cc3cccc4ccccc34)cc(=O)n21 (stereo not given)', 94),
  ('O=C(Nc1cccc(F)c1)C1CSc2c(C3CC3)c(Cc3cccc4ccccc34)cc(=O)n21 (stereo not given)', 96),
  ('CN(C(=O)C1CSc2c(C3CC3)c(Cc3cccc4ccccc34)cc(=O)n21)c1ccccc1 (stereo not given)', 96);
